assay_remarks: blockers of RIG-like receptor reporter activation – cell-based, Sendai virus stimulus, luciferase, 10K MLSCN set, TLR/RLR signaling modifier project, primary screen (AID 602276);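 note: firefly luciferase from ISG56 promoter only with Renilla not read in this screen; 0% = Sendai virus plus DMSO and 100% = medium plus DMSO without virus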
cond: HEK293 RL24 IRF3 luciferase reporter, at 10 µM, stronger effect = higher value
Active and inactive are the calls of the source.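 Rule for the calls: active = inhibition at or above 50% at 10 µM; inactive = inhibition below 50%.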
result_type: inhibition

Past entries and their recorded results:
[
  {
    "molecule": "CC1(C)CC(=O)C2=C(C1)Nc1ccccc1N=C2",
    "result_type": "inhibition",
    "obs_value": "-4.26% (inactive)"
  },
  {
    "molecule": "CNC(=O)CSc1nnc(-c2cc(C)cc(C)c2)o1",
    "result_type": "inhibition",
    "obs_value": "4.57% (inactive)"
  },
  {
    "molecule": "O=C(CN1CCN(c2ccc(F)cc2)CC1)OCc1ccccc1",
    "result_type": "inhibition",
    "obs_value": "6.81% (inactive)"
  },
  {
    "molecule": "CC(C)(C)OC(=O)N1CCC(C(=O)N2CCCCCC2)CC1",
    "result_type": "inhibition",
    "obs_value": "7.78% (inactive)"
  },
  {
    "molecule": "O=C(CSc1nnc(Cc2ccccc2)n1C1CCCCC1)N1CCOCC1",
    "result_type": "inhibition",
    "obs_value": "-13% (inactive)"
  }
]

Could you report inhibition for every entry in the following list?
1. CC(O)c1nc2ccccc2n1C1CCCCC1 (stereo unspecified)
2. CC(=O)N1CCc2c(sc(NC(=O)c3ccc(S(=O)(=O)N(C)C)cc3)c2C#N)C1

20.2% (inactive)
-4.77% (inactive)

Could you report inhibition for every entry in the following list?
1. Cc1cc(C)c2c(n1)nn1c(NCCCN3CCOCC3)cc(C)nc21
2. Cc1[nH]nc(N=CC2=C(O)CC(C)(C)CC2=O)c1-c1ccc(Cl)cc1
3. CC(=O)Nc1nc2c(c3c1c(=O)oc1ccccc13)CC(C)CC2 (stereo unspecified)

1. 8.42% (inactive)
2. 11.6% (inactive)
3. 12.8% (inactive)

Input Cc1ccc(Cn2ncc3c(NCCCN4CCOCC4)ncnc32)cc1 , output reported inhibition.
22.3% (inactive)

====

measured_target: Voltage-gated potassium channel subunit beta-2 (Rattus norvegicus)
assay_remarks: enhancers of rat Kvbeta2 NADPH turnover – biochemical, NADPH fluorescence, primary screen (AID 623);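 note: fluorescence intensity change per second fitted from 20 to 320 s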
cond: Recombinant KvBeta, NADPH fluorescence decrease slope, 10 min; at 10 µM; stronger effect = lower value
result_type: NADPH fluorescence slope
Answers are plain numbers.

Could you report NADPH fluorescence slope for every entry in the following list?
1. O=c1c2cnn(-c3ccccc3)c2ncn1/N=C/c1ccncc1
2. S=C(NCC1CCCO1)n1nnc2ccccc21 (configuration not stated)
3. CCOC(=O)c1oc2c(CN3CCN(C)CC3)c(O)ccc2c(=O)c1-c1ccccc1OC
4. CCCNC(=O)c1cc(S(=O)(=O)N2CCc3ccccc32)ccc1F

["-5.9e-05", "4.6e-05", "8.1e-06", "-7.4e-05"]

Could you report NADPH fluorescence slope for every entry in the following list?
1. c1cncc(-c2nnc(SCCSc3nnc(-c4cccnc4)o3)o2)c1
2. Cc1ccc2c(c1)sc1ncc(NC(=O)c3ccccc3)c(=O)n12
3. c1ccc(-c2noc(C34CC5CC(CC(C5)C3)C4)n2)nc1
4. CCC(C)(C)NC(=O)C(OC(=O)c1ccco1)c1ccccc1OC (configuration not stated)
5. O=c1c2c3c(sc2n2cnnc2n1CCc1ccccc1)CCCC3
6. CCOc1ccccc1C(=O)Nn1c(C2CCC2)nc2ccccc2c1=O
7. CCOCC(O)CS(=O)Cc1ccccc1 (configuration not stated)

-7.7e-06
6.2e-06
-0.00016
3.7e-06
-2.6e-05
-5.5e-05
-6.9e-05

Could you report NADPH fluorescence slope for every entry in the following list?
1. O=C(CCc1ccc(S(=O)(=O)N2CCOCC2)cc1)NCCc1ccccn1
2. COc1ccccc1N1CCN(Cc2nnnn2CCc2ccccc2)CC1
3. COc1cccc(C2CC(c3ccccc3)n3ncnc3N2)c1 (configuration not stated)

1. 1.5e-05
2. 8e-05
3. -2.8e-05

====

measured_target: Voltage-gated potassium channel subunit beta-2 (Rattus norvegicus) (UniProt P62483)
Sequence (P62483 whole entry, looked up): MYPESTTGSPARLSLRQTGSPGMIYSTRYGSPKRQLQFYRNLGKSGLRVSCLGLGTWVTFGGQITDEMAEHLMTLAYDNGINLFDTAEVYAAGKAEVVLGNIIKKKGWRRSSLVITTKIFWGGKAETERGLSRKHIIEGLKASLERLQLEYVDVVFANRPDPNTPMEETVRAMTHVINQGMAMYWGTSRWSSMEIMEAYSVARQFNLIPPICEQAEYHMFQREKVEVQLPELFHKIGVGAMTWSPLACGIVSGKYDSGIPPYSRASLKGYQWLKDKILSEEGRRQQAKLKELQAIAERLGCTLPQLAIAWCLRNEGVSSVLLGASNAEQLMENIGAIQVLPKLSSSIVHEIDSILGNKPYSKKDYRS
assay_remarks: enhancers of rat Kvbeta2 NADPH turnover – biochemical, NADPH fluorescence, primary screen (AID 623);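 note: fluorescence intensity change per second fitted from 20 to 320 s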
cond: Recombinant KvBeta, NADPH fluorescence decrease slope, 10 min; at 10 µM; stronger effect = lower value
result_type: NADPH fluorescence slope
Give bare numbers.

[
  {
    "record_smiles": "COC(=O)[C@H](CCSC)NC(=O)Nc1cc(C)ccc1C",
    "NADPH fluorescence slope": "-3.2e-05"
  },
  {
    "record_smiles": "Cc1onc(-c2ccccc2)c1C(=O)N1CCOCC1",
    "NADPH fluorescence slope": "7.5e-06"
  },
  {
    "record_smiles": "Nc1nonc1C(=O)NCCNCc1cc(Br)ccc1OCc1ccccc1F",
    "NADPH fluorescence slope": "-3.2e-05"
  },
  {
    "record_smiles": "COc1ccc(C(=O)NCc2nc3ccccc3[nH]2)cc1OC",
    "NADPH fluorescence slope": "3.9e-06"
  },
  {
    "record_smiles": "CCc1cc2c(NCCC(=O)O)nc(C)nc2s1",
    "NADPH fluorescence slope": "-4e-05"
  }
]

Input O=C(CSc1nnc(-c2ccccc2Cl)n1Cc1ccco1)Nc1ccc2c(c1)OCCO2 , output reported NADPH fluorescence slope.
-9.8e-05

====

assay_remarks: endothelial E-selectin expression blockers – imaging, HUVEC, immunofluorescence, MLSMR starter and 10KST1 sets, primary screen (AID 487);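 note: 100% = median nuclei count of all wells on the same plate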
cond: HUVEC TNFalpha-induced E-selectin immunofluorescence imaging, at 2 µM; measured here: cell number, toxicity
Would you kindly list nuclei count for each of these compounds?
Give bare numbers, in %.

[
  {
    "compound": "CCOC(=O)c1ccc(NC(=O)CCNc2c(N3CCCC3)c(=O)c2=O)cc1",
    "nuclei count [%]": 117
  },
  {
    "compound": "CCSc1nnc(N2C(=O)CC(c3ccsc3)C3=C2CC(C)(C)CC3=O)s1 (centres undefined)",
    "nuclei count [%]": 115
  },
  {
    "compound": "CC(=O)c1ccc(NC(=O)CSc2nnc(-c3ccoc3C)n2Cc2ccccc2)cc1",
    "nuclei count [%]": 99.5
  },
  {
    "compound": "COc1ccccc1CN1C(=O)CCC1(C)C(=O)NC1CCCCCC1 (centres undefined)",
    "nuclei count [%]": 115
  }
]

Could you report nuclei count for every entry in the following list?
1. Cc1cc(NCCN(C)C)n2nc(-c3cccs3)cc2n1
2. CC(=O)/C(C[N+]1(C)CCCCC1)=N\O
3. COc1ccccc1OCc1nc2ccccc2[nH]1
4. CCCc1cc(C(=O)Nc2sc(C)c(C)c2C(=O)OCC)no1
5. O=C(Cn1[nH]c(=O)c2ccccc2c1=O)OCC(=O)N1CCCc2ccccc21
6. Cc1nc(-c2ccc(NC(=O)c3cccs3)cc2)cs1
7. Cc1ccccc1NC(=O)C1CCCN(S(=O)(=O)c2cccc3cccnc23)C1 (centres undefined)
8. CNC(=O)CSc1nc2c(c(=O)n(C)c(=O)n2C)n1Cc1ccc(C)cc1

114
107
86.3
114
117
109
112
88.8

Could you report nuclei count for every entry in the following list?
1. COc1ccccc1C(=O)Nc1ccccc1C(=O)N1CCCC1
2. CN(C)C(CNC(=O)Nc1cccc(Cl)c1)c1cccnc1 (centres undefined)
3. CCN(CC)S(=O)(=O)c1ccc2c(c1)c(=O)c(C(=O)NCCOC)cn2C
4. CCOc1ccc2c(c1)n(CO)c(=S)n2CO
5. CC(C)OC(=O)c1cc(NC(=O)C2C3CCC(O3)C2C(=O)O)cc(C(=O)OC(C)C)c1 (centres undefined)
6. COc1ccc(CCNC(=O)CN(c2ccccc2OC)S(C)(=O)=O)cc1

115
115
112
105
113
98.4

====

assay_remarks: reduction of polyQ htt aggregates in cells – imaging, exon1htt(103Q)mCFP cells, high-content imaging, primary screen (AID 483);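 note: compound exposure lasted 3 days before fixation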
cond: exon1htt(103Q)mCFP cell line, aggregate imaging, at 2 µM; stronger effect = higher value
result_type: inhibition of aggregation (%)
Answers are plain numbers, in %.

Past entries and their recorded results:
[
  {
    "molecule": "Cc1nc2ccc(F)cc2cc1C(=O)NCC1CCCO1 (configuration not stated)",
    "inhibition of aggregation, %": 7.6
  },
  {
    "molecule": "CCCCc1cc(=O)oc2c(CN3CCCC3)c(O)c(Cl)cc12",
    "inhibition of aggregation, %": -16.7
  },
  {
    "molecule": "CC(C)(C#N)Nn1cnnc1",
    "inhibition of aggregation, %": 13.2
  },
  {
    "molecule": "COC(=O)c1oc2ccc(Br)cc2c1NC(C)=O",
    "inhibition of aggregation, %": 35.6
  },
  {
    "molecule": "Cc1ccc2[nH]c3c(=O)n(CCCN4CCN(C)CC4)cnc3c2c1",
    "inhibition of aggregation, %": -13.7
  },
  {
    "molecule": "COC(=O)CCC(NC(=O)c1cc(-c2ccc3c(c2)OCCO3)oc1C)C(=O)OC (configuration not stated)",
    "inhibition of aggregation, %": 0.3
  }
]

Could you report inhibition of aggregation for every entry in the following list?
1. Cc1ccc(S(=O)(=O)N2CCN(C(=O)N3CCOCC3)C2c2ccc(N(C)C)cc2)cc1 (configuration not stated)
2. O=C(O)CCNc1ccc2c(c1)OCCO2
3. CC(C)(C)c1ccc(OCC(=O)O)cc1
4. Cc1oc2c(CN3CCCC3)c(O)ccc2c(=O)c1-c1ccccc1
5. COC(=O)C1=C(N)Oc2cc(C)n(Cc3ccncc3)c(=O)c2C1c1cccnc1 (configuration not stated)
6. CC(C)(C)NC(=O)CC(CC(=O)O)c1ccccc1 (configuration not stated)

1. 0.7
2. 10
3. 11.7
4. 6.5
5. 0
6. -4.2
